Test system: UO-31
Experiment Summary: NCI-60 SRB screen;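 note: half-maximal inhibitory concentration read as cell viability unlike GI50 net growth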
Format: cell-based, human
Condition: Homo sapiens; UO-31; five dose
Attribute Measured: pIC50
Schema: pIC50 number; meaning minus log10 of the concentration expressed in molar units.

Query N#CC1C(=O)NC(c2ccccc2[N+](=O)[O-])c2sc3c(F)cccc3c21 (stereo not shown) on UO-31; pIC50 returned: 4.71

----------
Tested on: OVCAR-8
Experiment Summary: NCI-60 SRB screen
Format: cell-based, human
Condition: Homo sapiens; single dose 10^−5 M; OVCAR-8, Ovarian cancer; read-out: Growth inhibition (%)
Give inhibition at 10 µM for every item shown.
Kindly provide the numeric value in % only, without the unit symbol.

Entry under test: N#CC1=C(N2CCOCC2)NC(c2cccc([N+](=O)[O-])c2)c2sc3c(F)cccc3c21 (stereo not drawn) . Its inhibition at 10 µM was 4.28

Entry under test: N#CC1=C(N2CCCCC2)NC(c2cccc([N+](=O)[O-])c2)c2sc3c(F)cccc3c21 (stereo not drawn) . Its inhibition at 10 µM was -0.33

Entry under test: CCN1CCN(C2=C(Cl)c3c(sc4c(F)cccc34)C(c3cccc([N+](=O)[O-])c3)N2)CC1 (stereo not drawn) . Its inhibition at 10 µM was 2.09

Entry under test: O=[N+]([O-])c1cccc(C2NC(N3CCOCC3)=C(Cl)c3c2sc2c(F)cccc32)c1 (stereo not drawn) . Its inhibition at 10 µM was 1.71

Entry under test: CCN1CCN(C2=C(C#N)c3c(sc4c(F)cccc34)C(c3cccc([N+](=O)[O-])c3)N2)CC1 (stereo not drawn) . Its inhibition at 10 µM was -1.56

Entry under test: N#CC1=C(Nc2ccccc2F)NC(c2cccc([N+](=O)[O-])c2)c2sc3c(F)cccc3c21 (stereo not drawn) . Its inhibition at 10 µM was -6.58

Entry under test: N#CC1=C(Cl)NC(c2cccc([N+](=O)[O-])c2)c2sc3c(F)cccc3c21 (stereo not drawn) . Its inhibition at 10 µM was -4.49

Entry under test: O=[N+]([O-])c1cccc(C2NC3=C(Nc4ccccc4N3)c3c2sc2c(F)cccc32)c1 (stereo not drawn) . Its inhibition at 10 µM was -3.4

Entry under test: O=[N+]([O-])c1cccc(C2NC(N3CCCCC3)=C(Cl)c3c2sc2c(F)cccc32)c1 (stereo not drawn) . Its inhibition at 10 µM was -6.18
